# TESTED SYSTEM: T1, mouse GIP receptor (mouse) (UniProt Q0P543)
# T1 sequence (looked up): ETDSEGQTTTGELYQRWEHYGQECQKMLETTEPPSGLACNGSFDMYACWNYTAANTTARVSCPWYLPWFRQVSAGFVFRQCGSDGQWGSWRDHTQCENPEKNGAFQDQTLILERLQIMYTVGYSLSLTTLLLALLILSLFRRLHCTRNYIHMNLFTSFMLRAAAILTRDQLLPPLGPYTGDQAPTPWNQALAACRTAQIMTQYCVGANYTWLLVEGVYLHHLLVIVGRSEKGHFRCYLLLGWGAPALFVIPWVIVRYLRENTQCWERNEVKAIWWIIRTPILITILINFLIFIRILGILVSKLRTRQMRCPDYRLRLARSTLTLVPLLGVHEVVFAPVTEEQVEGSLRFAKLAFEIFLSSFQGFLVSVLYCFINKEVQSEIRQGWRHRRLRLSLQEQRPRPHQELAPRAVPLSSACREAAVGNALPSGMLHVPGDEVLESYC
# ASSAY DETAILS: cell-based or functional assay
cAMP EC50 vs 0.4 nM: at or above is Satisfied, below is Not satisfied.

>  <BINDER>
IP366 (Fc fusion) YSEGTFTSDYRMLKERQAIDEFIAWLLKGGAAAGGSGSTASSGSGSATGGGGAATHTCPPC

>  <DISCRETE LABEL>
Not satisfied

$$$$
>  <BINDER>
IP309 (Fc fusion) YSEGTFISDVSSYLERQAIDEFIAWLLKGGAAAGGSGSTASSGSGSATGGGGAATHTCPPC

>  <DISCRETE LABEL>
Satisfied

$$$$
>  <BINDER>
IP334 (Fc fusion) YSEGTFTSDYSIALAAAAQQDFVNWLLKGGGGGGGSGGGGSGGGGSGGGGSGGGGSGGGGSA

>  <DISCRETE LABEL>
Not satisfied

$$$$
>  <BINDER>
IP381 (Fc fusion) YSEGTFTSDYSKLLEEEAVRLFIEYLLAGGGGGGSGGGGSGGGGSGGGGSATHTCPPC

>  <DISCRETE LABEL>
Satisfied

$$$$
>  <BINDER>
IP311 (Fc fusion) YSEGTFISDYSIALAAAAIDDFVNWLLAGGGGGGGSGGGGSGGGGSGGGGSATHTCPPC

>  <DISCRETE LABEL>
Satisfied

$$$$
>  <BINDER>
IP359 (Fc fusion) YSEGTFTSDYSKLLEEEAVRLFIEHLLAGGGGGGSGGGGSGGGGSGGGGSATHTCPPC

>  <DISCRETE LABEL>
Satisfied

$$$$
>  <BINDER>
IP342 (Fc fusion) YSEGTFTSDYSAAAEAAAAAAFAAWLAAAAGGGGGSGGGGSGGGGSGGGGSACPPC

>  <DISCRETE LABEL>
Satisfied

$$$$
>  <BINDER>
IP375 (Fc fusion) YSEGTHTSLFSKLLERQAIDEFIAWLLKGGAAAGGSGSTASSGSGSATGGGGAATHTCPPC

>  <DISCRETE LABEL>
Satisfied

$$$$
>  <BINDER>
IP335 (Fc fusion) YSEGTFISDYSIAMDKIHQQDFVNWLLAQKGGGGGSGGGGSGGGGSGGGGSA

>  <DISCRETE LABEL>
Not satisfied

$$$$
>  <BINDER>
IP352 (Fc fusion) YSEGTFTSDYSKLLERQAIDEFIAMLLKGEGGGGGSGGGGSGGGGSGGGGSGGGGSGGGGSA

>  <DISCRETE LABEL>
Satisfied

$$$$
